Experimental target: D(1A) dopamine receptor (Homo sapiens)
Protocol summary: Displacement of [3H]SCH 23390 from D1 dopamine receptor
# strict inequality: Ki < 9 nM yields Yes, everything else yields No

stdin: Regarding CN1CCc2ccccc2Cc2[nH]c3ccccc3c2CC1 , kindly confirm whether its Ki is beneath 9 nM.
stdout: Yes

stdin: Criterion: Ki strictly below 9 nM. Is it met by CN1CCc2ccccc2Cc2cc(O)c(Cl)cc2CC1 ?
stdout: Yes

stdin: Determine whether this compound shows Ki lower than 9 nM (ties excluded): COc1ccc2c(c1)CCN(C)CCc1cc(OC)ccc1C2
stdout: No

stdin: # strict comparison: is reported Ki < 9 nM? input = CN1CCc2ccccc2Cc2cc(Cl)c(O)c(Cl)c2CC1
stdout: Yes

stdin: Item CN1CCc2ccccc2Cc2c(O)cccc2CC1 : Ki beneath 9 nM, strictly?
stdout: Yes

stdin: A record lists CN1CCc2ccccc2Cc2ccc(O)c(Cl)c2CC1 . Is its Ki below 9 nM?
stdout: Yes

stdin: I'd appreciate it if you could check whether CN1CCc2ccccc2Cc2cc(N)c(O)cc2CC1 has Ki smaller than 9 nM.
stdout: No

stdin: Just wondering, is Ki of COc1c(Cl)cc2c(c1Cl)Cc1ccccc1CCN(C)CC2 below 9 nM?
stdout: No

stdin: State whether 9 nM exceeds Ki recorded for CN1CCc2ccccc2Cc2c(ccc(O)c2Cl)CC1 .
stdout: Yes

stdin: Please let me know if CN1CCc2cc(O)ccc2Cc2ccc(O)cc2CC1 shows Ki below 9 nM.
stdout: Yes

stdin: Does the reported Ki of the following compound sit strictly below 9 nM? COc1ccc2c(c1)Cc1ccccc1CCN(C)CC2
stdout: No

stdin: Strictly below 9 nM: is that where Ki of COc1ccc2c(c1)CCN(C)CCc1ccccc1C2 sits?
stdout: No

stdin: hey, is Ki for COc1cccc2c1Cc1ccccc1CCN(C)CC2 lower than 9 nM or not?
stdout: Yes

---

Field: log10(Ki). Provide a value for each of the compounds that follow.
Experimental target: D(1B) dopamine receptor (Homo sapiens, UniProt P21918)
Sequence (P21918 whole entry): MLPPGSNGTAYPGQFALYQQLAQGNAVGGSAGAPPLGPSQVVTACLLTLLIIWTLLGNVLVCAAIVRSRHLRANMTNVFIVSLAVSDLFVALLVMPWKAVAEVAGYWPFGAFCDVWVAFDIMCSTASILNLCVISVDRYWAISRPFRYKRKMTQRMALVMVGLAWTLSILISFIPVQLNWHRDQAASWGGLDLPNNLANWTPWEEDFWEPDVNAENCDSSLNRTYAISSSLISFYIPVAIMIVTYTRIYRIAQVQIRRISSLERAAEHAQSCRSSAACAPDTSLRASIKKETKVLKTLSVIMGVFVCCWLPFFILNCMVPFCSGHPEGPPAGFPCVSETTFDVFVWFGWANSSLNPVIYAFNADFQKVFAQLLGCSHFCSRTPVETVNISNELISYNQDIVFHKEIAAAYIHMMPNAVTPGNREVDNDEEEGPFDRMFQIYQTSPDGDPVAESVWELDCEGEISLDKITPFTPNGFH
Protocol summary: Inhibition of D5 dopamine receptor in HEK 293 cells by intracellular calcium assay
Assay type: functional, cell-based, HEK293
In plain terms, each number is the log10 of measured Ki in nM.

stdin: Value lookup for log10(Ki); key = CN1CCc2ccccc2Cc2[nH]c3ccccc3c2CC1
stdout: 1.10

stdin: log10(Ki) for COc1cccc2c1Cc1ccccc1CCN(C)CC2 ?
stdout: 1.74

stdin: // lookup log10(Ki) for COc1ccc2c(c1)Cc1ccccc1CCN(C)CC2
stdout: 3.02

stdin: Give the measured log10(Ki) of CN1CCc2ccccc2Cc2cc(O)ccc2CC1 .
stdout: 1.57

stdin: Can you share its log10(Ki)? I mean this compound: CN1CCc2ccccc2Cc2cc(N)c(O)cc2CC1
stdout: 1.60

---

Experimental target: D(1A) dopamine receptor (Homo sapiens, UniProt P21728)
Sequence (P21728 whole entry): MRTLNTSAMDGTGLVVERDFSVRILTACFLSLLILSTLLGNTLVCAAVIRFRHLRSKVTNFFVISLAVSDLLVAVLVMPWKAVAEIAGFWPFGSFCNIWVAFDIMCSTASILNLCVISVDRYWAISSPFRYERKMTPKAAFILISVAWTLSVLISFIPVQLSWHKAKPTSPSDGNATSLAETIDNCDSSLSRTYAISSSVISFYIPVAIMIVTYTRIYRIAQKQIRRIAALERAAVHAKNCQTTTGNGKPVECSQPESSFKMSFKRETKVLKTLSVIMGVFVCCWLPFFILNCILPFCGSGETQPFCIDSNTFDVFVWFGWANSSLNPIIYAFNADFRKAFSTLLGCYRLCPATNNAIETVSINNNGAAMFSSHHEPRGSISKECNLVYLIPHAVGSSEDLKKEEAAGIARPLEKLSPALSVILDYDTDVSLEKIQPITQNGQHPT
Protocol summary: Inhibition of D1 dopamine receptor in HEK 293 cells by intracellular calcium assay
Format: functional, cell-based, HEK293
Give pKi for every item shown.
Give only the number. pKi is defined as minus log10 of concentration in molar units.

stdin: Would you mind telling me what pKi value was observed for CN1CCc2cc(O)ccc2Cc2ccc(O)cc2CC1 ?
stdout: 8.48

stdin: Please give the measured pKi for this compound: CN1CCc2ccccc2Cc2c(O)cccc2CC1
stdout: 7.19

stdin: Can you look up the measured pKi of CN1CCc2ccccc2Cc2cc(O)c(Cl)cc2CC1 for me?
stdout: 7.97

stdin: Fill blank: measured pKi of the compound CN1CCc2ccccc2Cc2cc(O)ccc2CC1 is ____.
stdout: 8.59

stdin: Fill in: pKi of CN1CCc2ccccc2Cc2c(ccc(O)c2Cl)CC1 is ___
stdout: 8.17

Source listed as ChEMBL document CHEMBL1138197.
